Measured Foxtail, Giant plant response rating, listed per entry.
# Tested on: foxtail, giant (giant foxtail, Setaria faberii)
# PROTOCOL: Test A postemergence, visual injury rating 0-100
# Format: in vivo
# DETAILS: 125 g ai/ha, 0 to 100 scale
Please respond with just the number, no unit label.

Would you kindly share the measured Foxtail, Giant plant response rating for COc1ccc(C2CC(C)=[N+]([O-])C2C(=O)Nc2cccc(F)c2F)cc1C(F)(F)F (racemic) ?
60

Please answer likewise for CC1=[N+]([O-])C(C(=O)Nc2cccc(F)c2F)C(c2cc(C)cc(C)c2)C1 (racemic)
90

Please answer likewise for CC1=[N+]([O-])C(C(=O)Nc2cccc(F)c2F)C(c2ccccc2C)C1 (racemic)
30
